assayedTarget: T1, recombinant biotinylated CD137 protein (Fc-fusion protein, R&D Systems 838-4B) (human, UniProt Q07011 24-186, biotinylated, sites not stated)
T1 construct: Bought Fc fusion; also called CD137-Fc
measurementNotes: ELISA, lysate on biotinylated CD137-Fc
Protocol: Streptavidin-coated Maxisorp plates (Nunc catalog 436110) were blocked for 1 h in Starting Block T20 (Pierce) and then coated with biotinylated CD137 (using same antigen as in panning) or negative controls (an unrelated Fc-fused recombinant protein and human serum albumin) for 1 h. Plates were rinsed with TBST and diluted lysate was applied to plates for 1 h. […]
metric: ELISA CD137 (RLU)
Output spec: scalar in RLU, unitless text.

Past entries and their recorded results:
[
  {
    "binder": "ISOP193ER9P1H11 (designed binder, not shown: small tags and cut ends) LPAPKNLVVSRVTEDSARLSWTAPDAAFDSFDIYYFEHPVGGEAIVLTVPGSERSYDLTGLKPGTEYLVAIYGVKGGVFSHPLSAIFTT",
    "ELISA CD137 (RLU)": "2.08e+06"
  },
  {
    "binder": "ISOP193HR9P1G6 (designed binder, not shown: small tags and cut ends) LPAPKNLVVSRVTEDSARLSWTAPDAAFDSFDIYYYELRLGGEAIVLTVPGSERSYDLTGLKPGTEYLVTIYGVKVCEQSYPLSAISTT",
    "ELISA CD137 (RLU)": "1.15e+07"
  },
  {
    "binder": "ISOP193HR9P1C8 (designed binder, not shown: small tags and cut ends) LPAPKNLVVSRVTEDSARLSWTAPDAAFDSFEIYYFELRLGGEAIVLTVPGSERSYDLTGLKPGTEYLVTIYGVKGGGYSTPLSAIFTT",
    "ELISA CD137 (RLU)": "1.82e+07"
  },
  {
    "binder": "ISOP193FR9P1H6 (designed binder, not shown: small tags and cut ends) LPAPKNLVVSRVTEDSARLSWTAPDAAFDSFDINYFEQPKGGEAIVLTVPGSERSYDLTGLKPGTEYLVTIYGVKGCDWSDPLSAIFTT",
    "ELISA CD137 (RLU)": "1.12e+07"
  }
]

Attention now turns to another entry.
Record request: ELISA CD137 (RLU) value, item ISOP193FR9P1C9 (designed binder, not shown: small tags and cut ends) LPAPKNLVVSRVTEDSARLSWTAPDAAFDSFQIYYFEWVVGGEAIVLTVPGSERSYDLTGLKPGTEYLVTIYGVKGCDWSDPLSAIFTT
1.23e+07
